Data provenance: ChEMBL document CHEMBL1806455

Test system: Staphylococcus aureus
Test: Antibacterial activity against constitutive macrolide, lincosamide, streptogramin-resistant Staphylococcus aureus PK2 by broth microdilution method
Type: functional
recordedEndpoint: MIC

Ask: GET MIC | system: Staphylococcus aureus | item: "CC[C@H]1OC(=O)[C@H](C)[C@@H](O[C@H]2C[C@@](C)(OC)[C@@H](OC(=O)CCOCCNc3cc4c(=O)c(C(=O)O)cn(C5CC5)c4cc3Cl)[C@H](C)O2)[C@H](C)[C@@H](O[C@@H]2O[C@H](C)C[C@H](N(C)C)[C@H]2O)[C@](C)(O)C[C@@H](C)CN(C)[C@H](C)[C@@H](O)[C@]1(C)O"
Reply: 32 µg/mL

Ask: GET MIC | system: Staphylococcus aureus | item: "CCCn1cc(C(=O)O)c(=O)c2cc(NCCOCCOCCC(=O)O[C@H]3[C@H](C)O[C@@H](O[C@H]4[C@H](C)[C@@H](O[C@@H]5O[C@H](C)C[C@H](N(C)C)[C@H]5O)[C@](C)(O)C[C@@H](C)CN(C)[C@H](C)[C@@H](O)[C@](C)(O)[C@@H](CC)OC(=O)[C@@H]4C)C[C@@]3(C)OC)c(Cl)cc21"
Reply: > 64 µg/mL
